Tested on: Hs-578T
procedure summary: NCI tumour cell line growth inhibition, 48 h
Active and inactive are the calls of the source. Rule as the data show it: active = GI50 up to about 1.1 µM and inactive = higher.
Below, each entry is listed alongside its reported GI50.

Given `Cc1cn(CCCCCCC2=NCCCN2)c(=O)[nH]c1=O` , respond with its GI50.
> 100 µM (inactive)

---
Given `O=C1NCC2(CCNCC2)N1c1ccccc1` , respond with its GI50.
> 100 µM (inactive)

Given `COc1c(C)c2c(c(=O)c3c(C)cccc3n2C)c2c1c(=O)c1c(C)cccc1n2C` , respond with its GI50.
> 10 µM (inactive)

Given `O=C1NCC2(CCNCC2)N1` , respond with its GI50.
> 100 µM (inactive)

Given CCCCCCC(O)C(=O)OC1C2C(CC1(C)C)C(O)C13OC1C(O)C1(CO1)[C@@]23C (stereo partly specified) , respond with its GI50.
28.2 µM (inactive)

Given O=C1c2ccccc2C(=O)N1CCSCC(CO)SCCN1C(=O)c2ccccc2C1=O (stereo unspecified) , respond with its GI50.
> 100 µM (inactive)

---

Test system: ACHN
procedure summary: NCI tumour cell line growth inhibition, 48 h
Active and inactive are the calls of the source. Rule as the data show it: active = GI50 up to about 1.1 µM and inactive = higher.
Answer with one of the outcomes given here: Yes (active), No (inactive)

Lab log entry: `COc1c(C)c2c(c(=O)c3c(C)cccc3n2C)c2c1c(=O)c1c(C)cccc1n2C` — outcome as called in the assay?
No

Lab log entry: `O=C1Oc2ccccc2C(=O)/C1=C/NC(=S)NCCc1ccccc1` — outcome as called in the assay?
No

Lab log entry: COC(=O)CC(C(C(=O)OCc1ccccc1)C(C)O)N1C(=O)OC(c2ccccc2)C1c1ccccc1 (stereo unspecified) — outcome as called in the assay?
No

Lab log entry: `Clc1ccc(-c2nc(-c3ccc(Cl)cc3)[s+]s2)cc1` — outcome as called in the assay?
No

Lab log entry: CN(C)CCNC1=Nc2ccccc2C(=S)N2CSCC12 (stereo unspecified) — outcome as called in the assay?
No

---
Lab log entry: `CN(CCc1ccccn1)C(=S)N/N=C(\c1ccccc1)c1ccccn1` — outcome as called in the assay?
Yes

Lab log entry: `CC(=O)Nc1ccc(Nc2nc(=O)[nH]c(=O)[nH]2)cc1` — outcome as called in the assay?
No

Lab log entry: `O=Cc1ccc2ccocc1-2` — outcome as called in the assay?
No

Lab log entry: `c1ccc2c3c(c(N4CCOCC4)nc2c1)CCCC3` — outcome as called in the assay?
No

Lab log entry: `Cc1cc(C#N)c(Nc2c(C)cccc2[N+](=O)[O-])s1` — outcome as called in the assay?
No

Lab log entry: `Cc1cc2nc(CC(C(F)(F)F)C(F)(F)F)oc2cc1C` — outcome as called in the assay?
No

Lab log entry: `O=C1N[C@@H]2c3c(csc3Br)C(=O)[C@@H]2O1` — outcome as called in the assay?
No

Lab log entry: `COc1cccc2cc(C(=O)NC34CC5CC(CC(C5)C3)C4)c(=N)oc12` — outcome as called in the assay?
No

Lab log entry: `Cc1ccc(S(=O)(=O)NC(=O)Nc2ccc(C(=O)O)cc2)cc1` — outcome as called in the assay?
No

Lab log entry: `O=C(O)COc1ccccc1C(=O)Nc1ccccc1` — outcome as called in the assay?
No

Lab log entry: `C[n+]1c(-c2ccc(/C=C/C=N\NC(=O)c3ccc(C(=O)N/N=C\C=C\c4ccc(-c5cn6ccccc6[n+]5C)cc4)cc3)cc2)cn2ccccc21` — outcome as called in the assay?
No

Lab log entry: CN1C(=O)C(O)C[C@@H]1c1ccc(F)cc1 (stereo partly specified) — outcome as called in the assay?
No

Lab log entry: COC(=O)C1=C(C)NC(C)=C([N+](=O)[O-])C1c1cccc(N=O)c1 (stereo unspecified) — outcome as called in the assay?
No

Lab log entry: `CCOC(=O)N1CCC(=C2c3ccc(Cl)cc3CCc3cccnc32)CC1` — outcome as called in the assay?
No

Lab log entry: `Cc1cccc2c(=O)c([Se]c3coc4c(C)cccc4c3=O)coc12` — outcome as called in the assay?
No

Lab log entry: `O=Cc1ccc2[nH]c(=O)oc2c1` — outcome as called in the assay?
No
